assay system: Protein mono-ADP-ribosyltransferase PARP3 (Homo sapiens)
# label = bin(measured ΔTm), where bins are low bracket: < 2 °C; middle bracket: ≥ 2 °C and < 5 °C; high bracket: ≥ 5 °C

Past entries and their recorded results:
molecule	label value
O=C(CCc1nc2ccccc2c(=O)[nH]1)NCc1ccccc1	middle bracket
COc1ccccc1CNC(=O)CCc1nc(O)c2ccccc2n1	middle bracket
O=C(CCc1nc2ccccc2c(=O)[nH]1)NC(c1ccc(Cl)cc1)C1CC1 (racemic)	low bracket
O=C(CCc1nc2ccccc2c(=O)[nH]1)N1CCc2ccccc2C1	middle bracket

**Q:** // return the class label for C[C@@H](NC(=O)Cc1nc2ccccc2c(=O)[nH]1)c1ccccc1
**A:** low bracket

* * *

assay system: Poly [ADP-ribose] polymerase 1 (Homo sapiens)
Sequence (P09874 whole entry): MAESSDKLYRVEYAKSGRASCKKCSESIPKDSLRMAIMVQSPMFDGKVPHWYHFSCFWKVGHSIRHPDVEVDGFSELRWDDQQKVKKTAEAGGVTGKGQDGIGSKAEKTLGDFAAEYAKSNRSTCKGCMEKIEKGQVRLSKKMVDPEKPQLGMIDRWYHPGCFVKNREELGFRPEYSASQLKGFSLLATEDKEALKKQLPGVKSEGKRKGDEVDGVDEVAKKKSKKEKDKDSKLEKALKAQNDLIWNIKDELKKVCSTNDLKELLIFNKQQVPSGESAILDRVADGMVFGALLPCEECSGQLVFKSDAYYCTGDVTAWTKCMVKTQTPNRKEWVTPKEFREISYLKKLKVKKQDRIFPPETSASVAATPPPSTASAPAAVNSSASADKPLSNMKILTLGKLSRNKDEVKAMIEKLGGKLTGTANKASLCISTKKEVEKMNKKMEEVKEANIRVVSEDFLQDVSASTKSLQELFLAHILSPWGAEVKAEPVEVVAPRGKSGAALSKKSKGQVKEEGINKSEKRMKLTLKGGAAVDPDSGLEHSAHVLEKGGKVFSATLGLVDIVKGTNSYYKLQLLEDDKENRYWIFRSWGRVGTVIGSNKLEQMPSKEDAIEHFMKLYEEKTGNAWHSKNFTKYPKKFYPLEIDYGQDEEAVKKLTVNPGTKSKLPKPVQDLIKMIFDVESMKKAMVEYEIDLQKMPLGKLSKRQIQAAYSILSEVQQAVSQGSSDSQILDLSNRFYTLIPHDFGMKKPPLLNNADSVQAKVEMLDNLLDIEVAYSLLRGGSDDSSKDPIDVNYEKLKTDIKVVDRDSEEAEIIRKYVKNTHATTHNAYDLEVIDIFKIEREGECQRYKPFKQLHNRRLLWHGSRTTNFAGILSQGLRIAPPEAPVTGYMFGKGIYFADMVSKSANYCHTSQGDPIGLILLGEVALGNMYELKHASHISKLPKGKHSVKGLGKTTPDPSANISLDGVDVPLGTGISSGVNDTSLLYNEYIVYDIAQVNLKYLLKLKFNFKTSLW
Short version: ΔTm at least 2 °C is Met, less is Not met.

molecule	label value
C[C@H](NC(=O)CCCc1nc2ccccc2c(=O)[nH]1)c1ccccc1	Not met
CC(NC(=O)CCc1nc2ccccc2c(=O)[nH]1)c1ccncc1 (racemic)	Met
O=C(CCc1nc2ccccc2c(=O)[nH]1)N[C@H]1CCc2ccccc21	Met
O=C(CCc1nc2ccccc2c(=O)[nH]1)NCc1ccc(F)cc1	Met
O=C(CCc1nc2ccccc2c(=O)[nH]1)N[C@@H]1CCc2ccccc21	Met
O=C(CCc1nc2ccccc2c(=O)[nH]1)NC(c1ccccc1)c1ccccc1	Not met

Please find the next molecule below.
**Q:** Is it the case that CC(C)(C)CC(NC(=O)CCc1nc2ccccc2c(=O)[nH]1)c1ccccc1 (racemic) has ΔTm reaching or exceeding 2 °C?
**A:** Not met

* * *

Overview of reported ΔTm across a group of compounds:
assay system: Poly [ADP-ribose] polymerase 2 (Homo sapiens)
Hi! Could you send only the number? It should be in °C, unit omitted.

compound	units of measure	ΔTm
CC(NC(=O)CCc1nc2ccccc2c(=O)[nH]1)c1ccncc1 (racemic)	°C	1.82
O=C(CCc1nc2ccccc2c(=O)[nH]1)N[C@@H](Cc1ccccc1)C(=O)O	°C	-0.32

// below: ΔTm requested for another compound
**Q:** Given the entry CON(C)C(=O)[C@H](Cc1ccccc1)NC(=O)CCc1nc2ccccc2c(=O)[nH]1 , report its measured ΔTm.
**A:** 0.33

* * *

Listing of recorded ΔTm by entry.
Test system: Poly [ADP-ribose] polymerase 14, ARTD8/PARP14 (Homo sapiens)
Enter your answer as a number in °C; do not include the unit.

compound	ΔTm / °C
O=C(CCc1nc2ccccc2c(=O)[nH]1)NC(c1ccc(Cl)cc1)C1CC1 (racemic)	-0.28
O=C(CCCc1nc2ccccc2c(=O)[nH]1)N[C@H]1CCc2ccccc21	-0.18
O=C(CCc1nc2ccccc2c(=O)[nH]1)N1CCc2ccccc2C1	-0.07

**Q:** Could you share what ΔTm was measured for CON(C)C(=O)[C@H](Cc1ccccc1)NC(=O)CCc1nc2ccccc2c(=O)[nH]1 , tested on Poly [ADP-ribose] polymerase 14, ARTD8/PARP14 (Homo sapiens)?
**A:** 0.32

**Q:** Value wanted: ΔTm (Poly [ADP-ribose] polymerase 14, ARTD8/PARP14 (Homo sapiens)) of entry O=C(CCc1nc2ccccc2c(=O)[nH]1)NCc1ccccc1Cl
**A:** 0.26

**Q:** Look up ΔTm with Poly [ADP-ribose] polymerase 14, ARTD8/PARP14 (Homo sapiens) for this compound: O=C(CCc1nc2ccccc2c(=O)[nH]1)NCCc1ccccc1
**A:** 0.2

**Q:** Recorded ΔTm for O=C(CCc1nc2cc(Cl)ccc2c(=O)[nH]1)N[C@H](CO)c1ccccc1 with Poly [ADP-ribose] polymerase 14, ARTD8/PARP14 (Homo sapiens), please?
**A:** -0.25

**Q:** Value wanted: ΔTm (Poly [ADP-ribose] polymerase 14, ARTD8/PARP14 (Homo sapiens)) of entry O=C(CCc1nc2ccccc2c(=O)[nH]1)N[C@H](CO)c1ccccc1
**A:** 0.38

**Q:** Give Poly [ADP-ribose] polymerase 14, ARTD8/PARP14 (Homo sapiens) ΔTm for O=C(CCCc1nc2ccccc2c(=O)[nH]1)N[C@H](CO)c1ccccc1
**A:** 0.53

**Q:** For Poly [ADP-ribose] polymerase 14, ARTD8/PARP14 (Homo sapiens), provide ΔTm of C[C@H](NC(=O)NCc1nc2ccccc2c(=O)[nH]1)c1ccccc1 please.
**A:** -0.77

**Q:** Record lookup: for Poly [ADP-ribose] polymerase 14, ARTD8/PARP14 (Homo sapiens), what ΔTm belongs to CC(NC(=O)CCc1nc2ccccc2c(=O)[nH]1)c1ccncc1 (racemic) ?
**A:** 0

**Q:** Param readout = ΔTm; param system = Poly [ADP-ribose] polymerase 14, ARTD8/PARP14 (Homo sapiens); param query = O=C(NCc1ccccc1)NCc1nc2ccccc2c(=O)[nH]1 ; response: value
**A:** -1.05

**Q:** Fill in the recorded ΔTm for this compound, with Poly [ADP-ribose] polymerase 14, ARTD8/PARP14 (Homo sapiens) as test system: C[C@@H](NC(=O)CCc1nc2cc(Cl)ccc2c(=O)[nH]1)c1ccccc1
**A:** 0.05

**Q:** Poly [ADP-ribose] polymerase 14, ARTD8/PARP14 (Homo sapiens) / ΔTm / O=C(CCc1nc2ccccc2c(=O)[nH]1)NCc1ccc(F)cc1 : value?
**A:** 0.69

**Q:** Any idea what ΔTm came out for O=C(CCc1nc2ccccc2c(=O)[nH]1)NCc1ccc(OC(F)F)cc1 on Poly [ADP-ribose] polymerase 14, ARTD8/PARP14 (Homo sapiens)?
**A:** 0.31

**Q:** # returns recorded ΔTm (system: Poly [ADP-ribose] polymerase 14, ARTD8/PARP14 (Homo sapiens)) for O=C(CCc1nc2ccccc2c(=O)[nH]1)NCc1ccc([N+](=O)[O-])cc1
**A:** -0.11

**Q:** Request - read-out ΔTm | tested on Poly [ADP-ribose] polymerase 14, ARTD8/PARP14 (Homo sapiens) | compound O=C(CCCc1nc2ccccc2c(=O)[nH]1)NC(c1ccccc1)c1ccccc1
**A:** 0.02
